Reference source: ChEMBL document CHEMBL1759987

test: Cytotoxicity in human HeLa cells assessed as cell viability after 72 hrs; assay type: cell-based
Each item that follows carries a reported CC50 at 72 h.

{"compound": "O=C1CCN(C(C(=O)Nc2ccc(Cl)cc2C(=O)c2ccccc2)c2ccccc2)CC1 (racemic)", "value_comparator": "=", "CC50 at 72 h [µM]": 27}
{"compound": "CN1CCN(C(=O)NC(C(=O)Nc2ccc(Cl)cc2C(=O)c2ccccc2)c2ccccc2)CC1 (single isomer, unassigned)", "value_comparator": "=", "CC50 at 72 h [µM]": 72}
{"compound": "CN(C)CCN1CCN(C(C(=O)Nc2ccc(Cl)cc2C(=O)c2ccccc2)c2ccccc2)CC1 (racemic)", "value_comparator": "=", "CC50 at 72 h [µM]": 39}
{"compound": "O=C(c1ccccc1)c1cc(Cl)ccc1NC(=O)C(c1ccc(C(F)(F)F)cc1)N1CCN(CCO)CC1 (racemic)", "value_comparator": "=", "CC50 at 72 h [µM]": 17}
{"compound": "CC(C)(C)OC(=O)N[C@H](C(=O)Nc1ccc(Cl)cc1C(=O)c1ccccc1)c1ccccc1", "value_comparator": ">", "CC50 at 72 h [µM]": 108}
{"compound": "O=CN1CCN(C(C(=O)Nc2ccc(Cl)cc2C(=O)c2ccccc2)c2ccccc2)CC1 (racemic)", "value_comparator": "=", "CC50 at 72 h [µM]": 50}
{"compound": "O=C(O)CN1CCN(C(C(=O)Nc2ccc(Cl)cc2C(=O)c2ccccc2)c2ccccc2)CC1 (racemic)", "value_comparator": ">", "CC50 at 72 h [µM]": 102}
{"compound": "O=C(c1ccccc1)c1cc(Cl)ccc1NC(=O)C(c1ccccc1)N1CCN(CCO)CC1 (racemic)", "value_comparator": "=", "CC50 at 72 h [µM]": 49}
{"compound": "O=C(c1ccccc1)c1cc(Cl)ccc1NC(=O)C(c1ccccc1)N1CCN(c2ccc([N+](=O)[O-])cc2)CC1 (racemic)", "value_comparator": ">", "CC50 at 72 h [µM]": 90}
{"compound": "O=C(c1ccccc1)c1cc(Cl)ccc1NC(=O)C(c1cccc2ccccc12)N1CCN(CCO)CC1 (racemic)", "value_comparator": "=", "CC50 at 72 h [µM]": 17}
{"compound": "O=C(c1ccccc1)c1cc(Cl)ccc1NC(=O)C(c1ccccc1)N1CCN(Cc2ccccc2)CC1 (racemic)", "value_comparator": ">", "CC50 at 72 h [µM]": 118}
{"compound": "O=C(c1ccccc1)c1cc(Cl)ccc1NC(=O)C(c1ccccc1)N1CCSCC1 (racemic)", "value_comparator": ">", "CC50 at 72 h [µM]": 111}
{"compound": "O=C(c1ccccc1)c1cc(Cl)ccc1NC(=O)C(c1ccc(F)cc1)N1CCN(CCO)CC1 (racemic)", "value_comparator": "=", "CC50 at 72 h [µM]": 38}
{"compound": "Cl.N[C@@H](C(=O)Nc1ccc(Cl)cc1C(=O)c1ccccc1)c1ccccc1", "value_comparator": "=", "CC50 at 72 h [µM]": 12}
{"compound": "CCOC(=O)N1CCN(C(C(=O)Nc2ccc(Cl)cc2C(=O)c2ccccc2)c2ccccc2)CC1 (racemic)", "value_comparator": "=", "CC50 at 72 h [µM]": 64}
{"compound": "CC(C)(C)OC(=O)N[C@@H](C(=O)Nc1ccc(Cl)cc1C(=O)c1ccccc1)c1ccccc1", "value_comparator": ">", "CC50 at 72 h [µM]": 108}
{"compound": "O=C(c1ccccc1)c1cc(Cl)ccc1NC(=O)C(c1ccccc1)n1ccnc1 (racemic)", "value_comparator": "=", "CC50 at 72 h [µM]": 55}
{"compound": "O=C(c1ccccc1)c1cc(Cl)ccc1NC(=O)C(c1ccccc1)N1CCC(CCO)CC1 (racemic)", "value_comparator": "=", "CC50 at 72 h [µM]": 19}
{"compound": "CCN1CCN(C(C(=O)Nc2ccc(Cl)cc2C(=O)c2ccccc2)c2ccccc2)CC1 (racemic)", "value_comparator": "=", "CC50 at 72 h [µM]": 76}
{"compound": "CC(C)(C)OC(=O)N1CCN(C(C(=O)Nc2ccc(Cl)cc2C(=O)c2ccccc2)c2ccccc2)CC1 (stereo not drawn)", "value_comparator": ">", "CC50 at 72 h [µM]": 94}
{"compound": "CN1CCN(C(=O)N[C@@H](C(=O)Nc2ccc(Cl)cc2C(=O)c2ccccc2)c2ccccc2)CC1", "value_comparator": "=", "CC50 at 72 h [µM]": 60}
{"compound": "COC(=O)CN1CCN(C(C(=O)Nc2ccc(Cl)cc2C(=O)c2ccccc2)c2ccccc2)CC1 (racemic)", "value_comparator": ">", "CC50 at 72 h [µM]": 99}
{"compound": "CN1CCN(C(C(=O)Nc2ccc(Cl)cc2C(=O)c2ccccc2)c2ccccc2)CC1 (racemic)", "value_comparator": "=", "CC50 at 72 h [µM]": 63}
{"compound": "CC(C)NC(=O)CN1CCN(C(C(=O)Nc2ccc(Cl)cc2C(=O)c2ccccc2)c2ccccc2)CC1 (racemic)", "value_comparator": "=", "CC50 at 72 h [µM]": 40}
{"compound": "Cl.N[C@H](C(=O)Nc1ccc(Cl)cc1C(=O)c1ccccc1)c1ccccc1", "value_comparator": "=", "CC50 at 72 h [µM]": 43}
{"compound": "CCCN1CCN(C(C(=O)Nc2ccc(Cl)cc2C(=O)c2ccccc2)c2ccccc2)CC1 (racemic)", "value_comparator": "=", "CC50 at 72 h [µM]": 38}
{"compound": "Cl.NC(Cc1ccccc1)C(=O)Nc1ccc(Cl)cc1C(=O)c1ccccc1 (racemic)", "value_comparator": "=", "CC50 at 72 h [µM]": 38}
{"compound": "O=C(c1ccccc1)c1cc(Cl)ccc1NC(=O)C(c1ccc(Br)cc1)N1CCN(CCO)CC1 (racemic)", "value_comparator": "=", "CC50 at 72 h [µM]": 17}

====

assay: Selectivity index, CC50 for HeLa cells to IC50 for Plasmodium falciparum; type: functional
assay_endpoint: Ratio CC50/IC50

{"molecule": "NC(=O)CN1CCN(C(C(=O)Nc2ccc(Cl)cc2C(=O)c2ccccc2)c2ccccc2)CC1 (racemic)", "assay_endpoint": "Ratio CC50/IC50", "value_measured": 22}
{"molecule": "CC(C)NC(=O)CN1CCN(C(C(=O)Nc2ccc(Cl)cc2C(=O)c2ccccc2)c2ccccc2)CC1 (racemic)", "assay_endpoint": "Ratio CC50/IC50", "value_measured": 41}
{"molecule": "O=C(c1ccccc1)c1cc(Cl)ccc1NC(=O)C(c1ccccc1)n1ccnc1 (racemic)", "assay_endpoint": "Ratio CC50/IC50", "value_measured": 12}
{"molecule": "CC(C)(C)OC(=O)N1CCN(C(C(=O)Nc2ccc(Cl)cc2C(=O)c2ccccc2)c2ccccc2)CC1 (stereo not drawn)", "assay_endpoint": "Ratio CC50/IC50", "value_measured": 11}
{"molecule": "Cl.NC(Cc1ccccc1)C(=O)Nc1ccc(Cl)cc1C(=O)c1ccccc1 (racemic)", "assay_endpoint": "Ratio CC50/IC50", "value_measured": 3}
{"molecule": "O=C(c1ccccc1)c1cc(Cl)ccc1NC(=O)C(c1ccccc1)N1CCN(c2ccccc2)CC1 (racemic)", "assay_endpoint": "Ratio CC50/IC50", "value_measured": 5}
{"molecule": "O=C(c1ccccc1)c1cc(Cl)ccc1NC(=O)C(c1ccc(C(F)(F)F)cc1)N1CCN(CCO)CC1 (racemic)", "assay_endpoint": "Ratio CC50/IC50", "value_measured": 28}
{"molecule": "O=C(O)CN1CCN(C(C(=O)Nc2ccc(Cl)cc2C(=O)c2ccccc2)c2ccccc2)CC1 (racemic)", "assay_endpoint": "Ratio CC50/IC50", "value_measured": 34}
{"molecule": "O=C(c1ccccc1)c1cc(Cl)ccc1NC(=O)C(c1cccc2ccccc12)N1CCN(CCO)CC1 (racemic)", "assay_endpoint": "Ratio CC50/IC50", "value_measured": 18}
{"molecule": "CN1CCN(C(C(=O)Nc2ccc(Cl)cc2C(=O)c2ccccc2)c2ccccc2)CC1 (racemic)", "assay_endpoint": "Ratio CC50/IC50", "value_measured": 18}
{"molecule": "Cl.N[C@H](C(=O)Nc1ccc(Cl)cc1C(=O)c1ccccc1)c1ccccc1", "assay_endpoint": "Ratio CC50/IC50", "value_measured": 3}
{"molecule": "CN1CCN(C(=O)NC(C(=O)Nc2ccc(Cl)cc2C(=O)c2ccccc2)c2ccccc2)CC1 (single isomer, unassigned)", "assay_endpoint": "Ratio CC50/IC50", "value_measured": 17}
{"molecule": "O=C(c1ccccc1)c1cc(Cl)ccc1NC(=O)C(c1ccccc1)N1CCSCC1 (racemic)", "assay_endpoint": "Ratio CC50/IC50", "value_measured": 10}
{"molecule": "O=C(c1ccccc1)c1cc(Cl)ccc1NC(=O)C(c1ccc(F)cc1)N1CCN(CCO)CC1 (racemic)", "assay_endpoint": "Ratio CC50/IC50", "value_measured": 45}
{"molecule": "O=C(c1ccccc1)c1cc(Cl)ccc1NC(=O)C(c1ccccc1)N1CCC(CCO)CC1 (racemic)", "assay_endpoint": "Ratio CC50/IC50", "value_measured": 1}
{"molecule": "CN1CCN(C(=O)N[C@@H](C(=O)Nc2ccc(Cl)cc2C(=O)c2ccccc2)c2ccccc2)CC1", "assay_endpoint": "Ratio CC50/IC50", "value_measured": 45}
{"molecule": "O=C1CCN(C(C(=O)Nc2ccc(Cl)cc2C(=O)c2ccccc2)c2ccccc2)CC1 (racemic)", "assay_endpoint": "Ratio CC50/IC50", "value_measured": 4}
{"molecule": "O=C(c1ccccc1)c1cc(Cl)ccc1NC(=O)C(c1ccccc1)N1CCN(Cc2ccccc2)CC1 (racemic)", "assay_endpoint": "Ratio CC50/IC50", "value_measured": 6}
{"molecule": "O=C(c1ccccc1)c1cc(Cl)ccc1NC(=O)C(c1ccccc1)N1CCCCC1 (racemic)", "assay_endpoint": "Ratio CC50/IC50", "value_measured": 6}
{"molecule": "Cl.N[C@@H](C(=O)Nc1ccc(Cl)cc1C(=O)c1ccccc1)c1ccccc1", "assay_endpoint": "Ratio CC50/IC50", "value_measured": 1}
{"molecule": "CCCN1CCN(C(C(=O)Nc2ccc(Cl)cc2C(=O)c2ccccc2)c2ccccc2)CC1 (racemic)", "assay_endpoint": "Ratio CC50/IC50", "value_measured": 6}
{"molecule": "O=C(c1ccccc1)c1cc(Cl)ccc1NC(=O)C(c1ccccc1)N1CCN(CCO)CC1 (racemic)", "assay_endpoint": "Ratio CC50/IC50", "value_measured": 150}
{"molecule": "O=CN1CCN(C(C(=O)Nc2ccc(Cl)cc2C(=O)c2ccccc2)c2ccccc2)CC1 (racemic)", "assay_endpoint": "Ratio CC50/IC50", "value_measured": 13}
{"molecule": "CCN1CCN(C(C(=O)Nc2ccc(Cl)cc2C(=O)c2ccccc2)c2ccccc2)CC1 (racemic)", "assay_endpoint": "Ratio CC50/IC50", "value_measured": 21}
{"molecule": "O=C(c1ccccc1)c1cc(Cl)ccc1NC(=O)C(c1ccccc1)N1CC[S+]([O-])CC1 (racemic)", "assay_endpoint": "Ratio CC50/IC50", "value_measured": 8}
{"molecule": "CC(C)(C)OC(=O)N[C@H](C(=O)Nc1ccc(Cl)cc1C(=O)c1ccccc1)c1ccccc1", "assay_endpoint": "Ratio CC50/IC50", "value_measured": 13}
{"molecule": "O=C(c1ccccc1)c1cc(Cl)ccc1NC(=O)C(c1ccccc1)N1CCN(c2ccc([N+](=O)[O-])cc2)CC1 (racemic)", "assay_endpoint": "Ratio CC50/IC50", "value_measured": 5}
{"molecule": "O=C(c1ccccc1)c1cc(Cl)ccc1NC(=O)C(c1ccc(Br)cc1)N1CCN(CCO)CC1 (racemic)", "assay_endpoint": "Ratio CC50/IC50", "value_measured": 31}
{"molecule": "CN(C)CCN1CCN(C(C(=O)Nc2ccc(Cl)cc2C(=O)c2ccccc2)c2ccccc2)CC1 (racemic)", "assay_endpoint": "Ratio CC50/IC50", "value_measured": 15}
{"molecule": "CC(C)(C)OC(=O)N[C@@H](C(=O)Nc1ccc(Cl)cc1C(=O)c1ccccc1)c1ccccc1", "assay_endpoint": "Ratio CC50/IC50", "value_measured": 17}
{"molecule": "O=C(c1ccccc1)c1cc(Cl)ccc1NC(=O)C(c1ccc2ccccc2c1)N1CCN(CCO)CC1 (racemic)", "assay_endpoint": "Ratio CC50/IC50", "value_measured": 94}
{"molecule": "Cl.NC(C(=O)Nc1ccc(Cl)cc1C(=O)c1ccccc1)c1ccccc1 (racemic)", "assay_endpoint": "Ratio CC50/IC50", "value_measured": 6}
{"molecule": "CCOC(=O)N1CCN(C(C(=O)Nc2ccc(Cl)cc2C(=O)c2ccccc2)c2ccccc2)CC1 (racemic)", "assay_endpoint": "Ratio CC50/IC50", "value_measured": 15}
